binding signal (RNAcompete z-score): recorded values
Molecular target: RBM10 RRM1-ZnF (Homo sapiens)
Sequence: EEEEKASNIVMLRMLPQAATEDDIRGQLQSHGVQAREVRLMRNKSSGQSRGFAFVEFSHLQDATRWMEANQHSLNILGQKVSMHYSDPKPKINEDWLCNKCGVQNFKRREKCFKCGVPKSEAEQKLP
Test: pulldown
Conditions: 20 nM protein; 20 mM Hepes pH 7.8, 80 mM KCl, 20 mM NaCl, 10% glycerol, 2 mM DTT; 4 C
# output: bare number, no unit

Query: Given the sequence GAGUGGG [7-mer GAGUGGG] , what is its reported binding signal (RNAcompete z-score)?
Result: 4.99

Query: Given the sequence GGGAAGG [7-mer GGGAAGG] , what is its reported binding signal (RNAcompete z-score)?
Result: 5.91

Query: Given the sequence GAAGGGG [7-mer GAAGGGG] , what is its reported binding signal (RNAcompete z-score)?
Result: 5.25

Query: Given the sequence AAAGGGU [7-mer AAAGGGU] , what is its reported binding signal (RNAcompete z-score)?
Result: 5

Query: Given the sequence GGGAUGG [7-mer GGGAUGG] , what is its reported binding signal (RNAcompete z-score)?
Result: 5.71

Query: Given the sequence GAAAGGA [7-mer GAAAGGA] , what is its reported binding signal (RNAcompete z-score)?
Result: 5.87

Query: Given the sequence GGAAAGG [7-mer GGAAAGG] , what is its reported binding signal (RNAcompete z-score)?
Result: 6.53

Query: Given the sequence GAAAGGG [7-mer GAAAGGG] , what is its reported binding signal (RNAcompete z-score)?
Result: 6.04

Query: Given the sequence GGAUGGG [7-mer GGAUGGG] , what is its reported binding signal (RNAcompete z-score)?
Result: 5.66

Query: Given the sequence AAGGGUG [7-mer AAGGGUG] , what is its reported binding signal (RNAcompete z-score)?
Result: 5.25

Query: Given the sequence GAAAUGG [7-mer GAAAUGG] , what is its reported binding signal (RNAcompete z-score)?
Result: 5.03

Query: Given the sequence GGAAGGG [7-mer GGAAGGG] , what is its reported binding signal (RNAcompete z-score)?
Result: 6

Query: Given the sequence GGUGGGG [7-mer GGUGGGG] , what is its reported binding signal (RNAcompete z-score)?
Result: 5.21

Query: Given the sequence GGUAAGG [7-mer GGUAAGG] , what is its reported binding signal (RNAcompete z-score)?
Result: 4.97

Query: Given the sequence GGUUGGG [7-mer GGUUGGG] , what is its reported binding signal (RNAcompete z-score)?
Result: 5.27
